Value source: paper PMC9352680

Reported pKd values for the following binders.
- ASSAY_SYSTEM: T1, PUF4 RNA-binding domain (Saccharomyces cerevisiae, UniProt P25339 537-888)
- T1 sequence: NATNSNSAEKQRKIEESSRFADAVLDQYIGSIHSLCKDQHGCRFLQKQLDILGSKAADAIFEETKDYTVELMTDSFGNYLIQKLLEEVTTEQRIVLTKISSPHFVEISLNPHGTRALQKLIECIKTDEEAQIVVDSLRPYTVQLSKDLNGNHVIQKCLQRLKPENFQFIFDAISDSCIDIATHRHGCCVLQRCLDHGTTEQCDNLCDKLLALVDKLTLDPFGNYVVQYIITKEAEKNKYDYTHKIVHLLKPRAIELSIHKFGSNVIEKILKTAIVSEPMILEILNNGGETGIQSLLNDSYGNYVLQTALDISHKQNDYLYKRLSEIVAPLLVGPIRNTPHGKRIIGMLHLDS
- ASSAY_NAME: Mg; RNA-MaP; 20 mM Na-HEPES pH 7.4, 30 mM KOAc, 0.75 mM MgCl2, 0.1% Tween-20, 5% glycerol, 0.1 mg/mL BSA, 2 mM DTT; 25 C; 0.0125-409.6 nM protein
- CONDITION_NOTES: tags: N-His6-TEV cleaved; C-SNAP kept, Cy3B-labelled; label: tethered on chip by stalled RNA polymerase
pKd: −log10 of the molar value.
RESULT_TYPE: pKd

BINDER	RESULT_TYPE	OBSERVED_RESULT
UCUCUUUGUAUAUUACUUCUCUU (ssRNA) [Ie_S1_P4E.1_K4.1_C4.1_H4.1_A4.1_F4.1_[+9CT]_T4.1]	pKd	9.24
Ic_S2_P4E.1_K4.1_C4.1_H4.1_A4.1_[A6T]_[T7A]_F4.1_[T8A]_[A9T]_T4.1 (ssRNA) RNA: UUUGAUUAAUAUGAUAUCGUUCUUUCUUGUAUUAAUUUCUUUCUCGAUAUCAUAUUAAUCUUU	pKd	7.11
Ie_S4_P3E.2_K3.1_C3.2_H3.1_[+2TCC]_A3.1_F3.1_T3.2 (ssRNA) RNA: UUUGACAACUGAUCGUUCUUUCUCUUGUCCUAUAUAUAUUCUUUCUCGAUCAGUUGUCUUU	pKd	7.97
Id_ii_S2_P5E.2_K5.1_C5.2_[C-2T]_[T-1A]_H5.1_A5.1_F5.1_T5.2_[T11A]_[A12C] (ssRNA) RNA: UUUGAUUAAUAUGAUAUCGUUCUUUCUUAUGUAUUAUUAACUUCUUUCUCGAUAUCAUAUUAAUCUUU	pKd	8.08
Ie_S2_P3E.2_K3.1_C3.2_[+-2TCC]_H3.1_A3.1_F3.1_T3.2 (ssRNA) RNA: UUUGAUUAAUAUGAUAUCGUUCUUUCUCUCCUUGUAUAUAUAUUCUUUCUCGAUAUCAUAUUAAUCUUU	pKd	9.03
